Just for reference, patent US12653892B2 is where these values come from.

Recorded measurements of MIC, Antibiotic +NH2-triguan-6C, one per entry
Tested on: S. aureus ATCC 29213
Assay: MIC by broth microdilution, S. aureus ATCC 29213
Format: cell-based
Settings: S. aureus (ATCC 29213); non-covalent mixture; Mueller Hinton Broth, polypropylene plate
Respond with the bare value in µM.

Known results for compounds:
CO[C@H]1/C=C/O[C@@]2(C)Oc3c(C)c(O)c4c(O)c(c(/C=N/N5CCN(C)CC5)c(O)c4c3C2=O)NC(=O)/C(C)=C\C=C\[C@H](C)[C@H](O)[C@@H](C)[C@@H](O)[C@@H](C)[C@H](OC(C)=O)[C@@H]1C    0.016
CN[C@H](CC(C)C)C(=O)N[C@H]1C(=O)N[C@@H](CC(N)=O)C(=O)N[C@H]2C(=O)N[C@H]3C(=O)N[C@H](C(=O)N[C@H](C(=O)O)c4cc(O)cc(O)c4-c4cc3ccc4O)[C@H](O)c3ccc(c(Cl)c3)Oc3cc2cc(c3O[C@@H]2O[C@H](CO)[C@@H](O)[C@H](O)[C@H]2O[C@H]2C[C@](C)(N)[C@H](O)[C@H](C)O2)Oc2ccc(cc2Cl)[C@H]1O    1
CC[C@H]1OC(=O)[C@H](C)[C@@H](O[C@H]2C[C@@](C)(OC)[C@@H](O)[C@H](C)O2)[C@H](C)[C@@H](O[C@@H]2O[C@H](C)C[C@H](N(C)C)[C@H]2O)[C@](C)(O)C[C@@H](C)CN(C)[C@H](C)[C@@H](O)[C@]1(C)O    2
CC1(C)S[C@@H]2[C@H](NC(=O)Cc3ccccc3)C(=O)N2[C@H]1C(=O)O    2
CC1(C)S[C@@H]2[C@H](NC(=O)[C@H](N)c3ccccc3)C(=O)N2[C@H]1C(=O)O    4

Test item O=C1CN(/N=C/c2ccc([N+](=O)[O-])o2)C(=O)N1 ; S. aureus ATCC 29213; reported MIC, Antibiotic +NH2-triguan-6C was 128

Test item O=C(N[C@H](CO)[C@H](O)c1ccc([N+](=O)[O-])cc1)C(Cl)Cl ; S. aureus ATCC 29213; reported MIC, Antibiotic +NH2-triguan-6C was 32

Test item C[C@@H](O)[C@H]1C(=O)N2C(C(=O)O)=C(S[C@@H]3CN[C@H](C(=O)N(C)C)C3)[C@H](C)[C@H]12 ; S. aureus ATCC 29213; reported MIC, Antibiotic +NH2-triguan-6C was 0.125
